Test system: OAT1
Assay: Observed in vivo (clinical) renal, secretion and intrinsic secretion clearance
Conditions: human, plasma
test.readout: microsomal CLint (µL/min/mg)
Write the answer as a number in µL/min/mg, unit excluded.

Req: Requested field: microsomal CLint. Item: Nc1ncnc2c1ncn2CCOCP(=O)(O)O [adefovir]
Resp: 35.2

* * *

List of CLsec Predicted 1% HSA values.
Test system: OAT1/3
Assay: Bottom-up IVIVE of CLint,sec, CLsec and CLr, relative activity factor (RAF) approach
Parameters: species or system human
Entry rule: numbers only, all in L/h.

>>> df
                           molecular_string            test_readout  unit_name  observed_result
0                    Cc1ncc(CO)c(C(=O)O)c1O  CLsec Predicted 1% HSA        L/h             1.79
1  CCCc1nc(C(C)(C)O)c(C(=O)O)n1Cc1ccc(-c2ccccc2-c2nnn[nH]2)cc1  CLsec Predicted 1% HSA        L/h             0.92
2  CC(C)c1nc(N(C)S(C)(=O)=O)nc(-c2ccc(F)cc2)c1/C=C/[C@@H](O)C[C@@H](O)CC(=O)O  CLsec Predicted 1% HSA        L/h             6.66

Req: Entry O=C(NC[C@H]1CN(c2ccc(N3CCOCC3=O)cc2)C(=O)O1)c1ccc(Cl)s1 : reported CLsec Predicted 1% HSA = ?
Resp: 11.1
